target.or.test.system: T1, Sla1-3, P32790
T1 sequence (P32790 344-424, looked up): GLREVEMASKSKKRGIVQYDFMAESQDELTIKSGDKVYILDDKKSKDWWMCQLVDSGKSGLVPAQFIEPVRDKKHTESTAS
run.description: SPOT array
condition.set: median of control spots 5475
measured.property: SPOT intensity

• IKKRNKIRLPSGSPE = 43
• KKIRLIFTYPSTVGR = 8

I: NRARYLPQNPDIIAG
II: QLMKNLPKIPLLNDI
q: Quick check, higher SPOT intensity between I and II ? When you have decided, please share the label of that item.
a: I
